# tested-system: Dual specificity protein kinase CLK3 (Homo sapiens, UniProt P49761)
# Sequence (P49761 whole entry): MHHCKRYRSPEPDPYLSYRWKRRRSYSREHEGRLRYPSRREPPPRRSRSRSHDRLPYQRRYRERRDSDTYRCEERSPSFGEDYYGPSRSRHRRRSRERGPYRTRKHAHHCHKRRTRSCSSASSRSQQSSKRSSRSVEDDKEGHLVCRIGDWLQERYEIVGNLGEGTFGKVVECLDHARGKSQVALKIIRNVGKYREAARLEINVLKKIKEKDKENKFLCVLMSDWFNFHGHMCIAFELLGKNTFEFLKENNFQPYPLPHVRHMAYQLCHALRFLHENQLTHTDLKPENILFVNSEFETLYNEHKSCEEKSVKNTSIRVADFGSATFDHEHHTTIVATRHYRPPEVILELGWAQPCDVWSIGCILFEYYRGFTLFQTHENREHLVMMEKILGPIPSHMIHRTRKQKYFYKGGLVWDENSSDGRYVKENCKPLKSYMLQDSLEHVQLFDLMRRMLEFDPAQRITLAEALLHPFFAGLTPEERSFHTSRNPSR
# assay-info: Inhibition of human recombinant CLK3 expressed in Baculovirus system
measurement-name: IC50

COC(=O)N1CCN([C@H]2CC[C@H](Nc3ncnc4ccc(C#N)cc34)CC2)CC1 :: > 10 µM

Now turn to the next molecule.
### Prompt Determine its reported IC50: `COC(=O)N1CCN([C@H]2CC[C@H](Nc3nc(Nc4cnn(C)c4)nc4ccc(CC#N)nc34)CC2)CC1`
### Response > 10 µM

----------
# assay-info: Oral bioavailability in rat at 1 mg/kg
# Assay type: ADME, organism-based
# test-context: in vivo
bioavailability values by entry
# output: bare number, implied unit %

COC(=O)N1CCN([C@H]2CC[C@H](Nc3nc(Nc4cnn(C)c4)nc4ccc(C#N)cc34)CC2)CC1 :: 10
N#Cc1ccc2ncnc(N[C@H]3CC[C@H](N4CCOCC4)CC3)c2c1 :: 29

Now turn to the next compound.
### Prompt Determine its reported bioavailability: `Cn1cc(Nc2nc(N[C@H]3CC[C@H](N4CCOCC4)CC3)c3cc(C#N)ccc3n2)cn1`
### Response 5

----------
pIC50 values by entry
# tested-system: UniProt:P49759
# Sequence (P49759 whole entry): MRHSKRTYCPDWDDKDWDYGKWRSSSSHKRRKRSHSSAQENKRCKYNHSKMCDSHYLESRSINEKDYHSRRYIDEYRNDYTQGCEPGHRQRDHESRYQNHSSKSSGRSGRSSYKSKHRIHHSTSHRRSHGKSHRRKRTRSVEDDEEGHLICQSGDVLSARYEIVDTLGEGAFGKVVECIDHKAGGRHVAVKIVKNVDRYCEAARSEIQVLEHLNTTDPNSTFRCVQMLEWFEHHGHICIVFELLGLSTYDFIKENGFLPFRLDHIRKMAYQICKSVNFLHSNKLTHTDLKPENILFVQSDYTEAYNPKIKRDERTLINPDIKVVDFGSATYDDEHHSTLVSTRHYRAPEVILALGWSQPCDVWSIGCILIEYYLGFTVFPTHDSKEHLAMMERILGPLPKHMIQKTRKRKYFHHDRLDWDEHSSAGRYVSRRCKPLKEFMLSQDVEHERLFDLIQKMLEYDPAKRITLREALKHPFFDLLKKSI
# assay-info: Inhibition of human recombinant CLK1 expressed in Escherichia coli
Remember, pIC50 is on a log scale: it is -log10 of the molar concentration.

COC(=O)N1CCN([C@H]2CC[C@H](Nc3nc(Nc4cnn(C)c4)nc4ccc(CC#N)nc34)CC2)CC1 :: 5.51

### Prompt Determine its reported pIC50: `COC(=O)N1CCN([C@H]2CC[C@H](Nc3ncnc4ccc(C#N)cc34)CC2)CC1`
### Response 5.77

----------
hepatocyte CLint values by entry
# assay-info: Intrinsic clearance in human hepatocytes assessed per million cells
# Format: ADME, cell-based, Hepatocyte
# test-context: read-out: CLH

Examples from the recorded data:
COC(=O)N1CCN([C@H]2CC[C@H](Nc3ncnc4ccc(C#N)cc34)CC2)CC1 :: < 1 µL/min/1e6 cells
COC(=O)N1CCN([C@H]2CC[C@H](Nc3nc(Nc4cnn(C)c4)nc4ccc(CC#N)nc34)CC2)CC1 :: 10 µL/min/1e6 cells
N#Cc1ccc2ncnc(N[C@H]3CC[C@H](N4CCOCC4)CC3)c2c1 :: < 1.2 µL/min/1e6 cells
COC(=O)N1CCN([C@H]2CC[C@H](Nc3ncnc4ccc(C)cc34)CC2)CC1 :: < 1 µL/min/1e6 cells
COC(=O)N1CCN([C@H]2CC[C@H](Nc3ncnc4ccc(C)nc34)CC2)CC1 :: < 1 µL/min/1e6 cells
Cn1cc(Nc2nc(N[C@H]3CC[C@H](N4CCOCC4)CC3)c3cc(C#N)ccc3n2)cn1 :: < 1 µL/min/1e6 cells

Now turn to the next compound.
### Prompt Determine its reported hepatocyte CLint: `COC(=O)N1CCN([C@H]2CC[C@H](Nc3nc(Nc4cnn(C)c4)nc4ccc(C)nc34)CC2)CC1`
### Response 13 µL/min/1e6 cells

----------
# assay-info: Efflux ratio in human Caco2 cells
# Assay type: ADME, cell-based
# test-context: Caco-2
Decide by efflux ratio: equal to or exceeding 20 means MET, less means NOT MET.

### Prompt Given the entry `N#Cc1ccc2ncnc(N[C@H]3CC[C@H](N4CCOCC4)CC3)c2c1` , answer whether its efflux ratio meets or surpasses 20.
### Response NOT MET

### Prompt Given the entry `COC(=O)N1CCN([C@H]2CC[C@H](Nc3nc(Nc4cnn(C)c4)nc4ccc(C#N)cc34)CC2)CC1` , answer whether its efflux ratio meets or surpasses 20.
### Response MET

Just for reference, ChEMBL document CHEMBL4321825 is where these values come from.
